system: antibody response to ovalbumin; assay: Adjuvant activity: antibody response to ovalbumin in mice, titer by solid-phase ELISA; format: in vivo, Balb/c mice; conditions: adjuvant 100 μg; ovalbumin 10 μg then 5 μg, i.p.
MEASUREMENT LABEL: Adjuvant index

QUERY: Item: RV-peptide: 14-mer, RN-peptide truncated from C-terminus (SEQ ID NO: 8) (RVPPRYHAKISPMV) Test system: antibody response to ovalbumin Read-out: Adjuvant index Value: ?
RESULT: 0.8 ± 0.03

QUERY: One more substance: VN-peptide: 14-mer, RN-peptide truncated from N-terminus (SEQ ID NO: 11) (VPPRYHAKISPMVN)
RESULT: 0.7 ± 0.03

QUERY: One more substance: R-I-peptide: 10-mer, RN-peptide truncated from C-terminus (SEQ ID NO: 9) (RVPPRYHAKI)
RESULT: 4.2 ± 0.05

QUERY: One more substance: R-H-peptide: 7-mer, RN-peptide truncated from C-terminus (SEQ ID NO: 10); truncated heptapeptide (RVPPRYH)
RESULT: 8.6 ± 0.09
